Endpoint: pIC50. System: porcine pancreatic lipase (Sus scrofa, UniProt P00591). Items follow.
pIC50: −log10 of the molar value.
REPORTED METRIC: pIC50

O=c1cc(-c2ccc(O)cc2)oc2cc(O)cc(O)c12 = 3.59

1 = COc1ccc([C@@H]2CC(=O)c3c(O)cc(O)cc3O2)cc1O
2 = O=c1cc(-c2ccc(O)c(O)c2)oc2cc(O)cc(O)c12
3 = C[C@@H]1O[C@@H](O[C@H]2C(=O)c3c(O)cc(O)cc3O[C@@H]2c2ccc(O)c(O)c2)[C@H](O)[C@H](O)[C@H]1O
4 = O=c1c(-c2ccc(O)cc2)coc2c([C@@H]3O[C@H](CO)[C@@H](O)[C@H](O)[C@H]3O)c(O)ccc12
Put these in order: smallest pIC50 first, largest last. Kindly provide the labels arranged according to the requested ordering.
4, 3, 1, 2
(4: 1.77, 3: 2.14, 1: 2.52, 2: 4.00)

* * *

Target sequence: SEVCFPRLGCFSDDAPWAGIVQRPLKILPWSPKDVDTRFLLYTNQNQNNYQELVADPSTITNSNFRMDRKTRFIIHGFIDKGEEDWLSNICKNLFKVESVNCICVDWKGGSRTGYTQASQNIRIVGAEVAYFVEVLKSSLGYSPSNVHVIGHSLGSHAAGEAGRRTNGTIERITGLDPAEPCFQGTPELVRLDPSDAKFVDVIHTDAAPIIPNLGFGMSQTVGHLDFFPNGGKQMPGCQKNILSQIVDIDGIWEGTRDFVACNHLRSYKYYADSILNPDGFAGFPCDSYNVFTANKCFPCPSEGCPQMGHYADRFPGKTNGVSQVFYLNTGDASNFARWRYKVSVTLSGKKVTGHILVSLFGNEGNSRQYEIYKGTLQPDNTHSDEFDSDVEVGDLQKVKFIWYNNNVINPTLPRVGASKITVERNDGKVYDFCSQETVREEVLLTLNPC
REPORTED METRIC: IC50 (µM)

a = O=c1c(O)c(-c2ccccc2)oc2cc(O)cc(O)c12 [Galangin]
b = O=C1c2c(O)cc(O)cc2OC(c2ccc(O)c(O)c2)C1O (stereo not drawn) [Taxifolin]
c = O=C1C[C@@H](c2ccc(O)cc2)Oc2cc(O)cc(O)c21 [Naringenin]
d = O=c1cc(-c2ccccc2)oc2cc(O)c(O)c(O)c12 [Baicalein]
Parameters: sort_field (IC50), sort_dir (desc). Kindly provide the labels arranged according to the requested ordering.
c, b, a, d

* * *

# SYSTEM UNDER TEST: porcine pancreatic lipase (Sus scrofa, UniProt P00591)
# Sequence (P00591 1-450): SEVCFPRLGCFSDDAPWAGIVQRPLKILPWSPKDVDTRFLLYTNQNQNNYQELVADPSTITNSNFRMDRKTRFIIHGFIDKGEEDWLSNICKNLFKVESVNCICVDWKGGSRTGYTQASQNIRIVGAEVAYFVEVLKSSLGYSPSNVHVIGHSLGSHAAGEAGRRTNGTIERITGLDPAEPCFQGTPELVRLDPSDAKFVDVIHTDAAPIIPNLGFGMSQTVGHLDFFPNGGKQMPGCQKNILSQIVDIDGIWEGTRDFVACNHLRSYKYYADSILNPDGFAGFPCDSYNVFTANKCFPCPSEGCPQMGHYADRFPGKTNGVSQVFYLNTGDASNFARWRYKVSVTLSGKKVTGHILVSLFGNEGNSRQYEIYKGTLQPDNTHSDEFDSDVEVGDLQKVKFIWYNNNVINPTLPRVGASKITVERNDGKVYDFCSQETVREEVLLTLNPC
pKd: −log10 of the molar value.
REPORTED METRIC: pKd

Examples with their reported pKd follow.
O=c1cc(-c2ccccc2)oc2cc(O)c(O)c(O)c12 [Baicalein] = 6.17
C[C@@H]1O[C@@H](OC[C@H]2O[C@@H](Oc3c(-c4ccc(O)c(O)c4)oc4cc(O)cc(O)c4c3=O)[C@H](O)[C@@H](O)[C@@H]2O)[C@H](O)[C@H](O)[C@H]1O [Rutin] = 5.27
Oc1cc(O)c2c(c1)O[C@H](c1ccc(O)c(O)c1)[C@H](O)C2 [Epicatechin] = 2.50

1 = O=C1c2c(O)cc(O)cc2O[C@H](c2cc(O)c(O)c(O)c2)[C@H]1O [Dihydromyricetin]
2 = Oc1cc(O)c2c(c1)O[C@H](c1cc(O)c(O)c(O)c1)[C@H](O)C2 [Epigallocatechin]
Which is greater in pKd, the first item 1 or the second item 2 ? // return label of chosen record
1
(1: 3.98, 2: 2.23)
